Cited source for all entries: patent US11160797B2

Reported IC50 for target or system ALK5 (aa162-503) (Homo sapiens (Human)), by entry.
Answer in µM, number only, no unit symbol.

These recorded examples may help you get a feel for the data.
- CN1C(=O)Cc2cc(-c3cncc(-c4ccc(=O)n(C5CCC5)c4)c3)ccc21: 5.3
- CC1C(=O)Nc2cc(-c3cncc(-c4ccc(=O)n(C(C)C)c4)c3)ccc21 (centres unmarked): 2.7

Record lookup: for ALK5 (aa162-503) (Homo sapiens (Human)), what IC50 belongs to CC(C)Cn1cc(-c2cncc(-c3ccc4c(c3)CC(=O)N4C)c2)ccc1=O ?
9.1

Record lookup: for ALK5 (aa162-503) (Homo sapiens (Human)), what IC50 belongs to Cc1cc(-c2cncc(-c3ccc4c(c3)CC(=O)N4C)c2)cn(C(C)C)c1=O ?
0.66

Record lookup: for ALK5 (aa162-503) (Homo sapiens (Human)), what IC50 belongs to CCN1c2ccc(-c3cncc(-c4ccc(=O)n(C(C)C)c4)c3)cc2CS1(=O)=O ?
2.9

Record lookup: for ALK5 (aa162-503) (Homo sapiens (Human)), what IC50 belongs to CCc1cc(-c2cncc(-c3ccc4c(c3)CC(=O)N4C)c2)cn(C(C)C)c1=O ?
0.72

Record lookup: for ALK5 (aa162-503) (Homo sapiens (Human)), what IC50 belongs to CC(C)n1cc(-c2cncc(-c3ccc4c(c3)CCCC(=O)N4C)c2)ccc1=O ?
1.4

Record lookup: for ALK5 (aa162-503) (Homo sapiens (Human)), what IC50 belongs to Cc1cc(-c2cncc(-c3ccc(=O)n(C(C)C)c3)c2)cc2c1N(C)C(=O)C2 ?
5.7

Record lookup: for ALK5 (aa162-503) (Homo sapiens (Human)), what IC50 belongs to CCN1C(=O)Cc2cc(-c3cncc(-c4ccc(=O)n(C(C)C)c4)c3)ccc21 ?
2.5

---

Target: wild-type ALK2 (aa172-499) (Homo sapiens (Human))
Experiment: Caliper biochemical peptide phosphorylation assay, ALK2
Details: Caliper peptide phosphorylation, 15 uM ATP; read-out: ALK2 IC50
Hi! Just check whether IC50 is below 100 nM. Below gives Yes, equal or above gives No.

Before answering, review these 6 worked examples.
* CC(C)n1nc(-c2cncc(-c3ccc4c(c3)CC(=O)N4C)c2)ccc1=O | Yes
* CC(C)n1cc(-c2cncc(-c3ccc4c(c3)CS(=O)(=O)N4C)c2)ccc1=O | Yes
* CCC(CC)n1cc(-c2cncc(-c3ccc4c(c3)CC(=O)N4C)c2)ccc1=O | No
* CC(C)Cn1cc(-c2cncc(-c3ccc4c(c3)CC(=O)N4C)c2)ccc1=O | No
* CC(C)CN1C(=O)Cc2cc(-c3cncc(-c4ccc(=O)n(C(C)C)c4)c3)ccc21 | Yes
* CC(C)n1cc(-c2cncc(-c3cc(F)c4c(c3)CC(=O)N4C)c2)ccc1=O | No

Field: next compound
Problem: For the compound CC(C)n1cc(-c2cncc(-c3ccc4c(c3)CCCC(=O)N4C)c2)ccc1=O , is IC50 under 100 nM?
Yes

---

Molecular target: ALK2 FOP mutant (aa172-499 R206H) (Homo sapiens (Human), UniProt Q04771, R206H)
Sequence (Q04771 172-499 R206H): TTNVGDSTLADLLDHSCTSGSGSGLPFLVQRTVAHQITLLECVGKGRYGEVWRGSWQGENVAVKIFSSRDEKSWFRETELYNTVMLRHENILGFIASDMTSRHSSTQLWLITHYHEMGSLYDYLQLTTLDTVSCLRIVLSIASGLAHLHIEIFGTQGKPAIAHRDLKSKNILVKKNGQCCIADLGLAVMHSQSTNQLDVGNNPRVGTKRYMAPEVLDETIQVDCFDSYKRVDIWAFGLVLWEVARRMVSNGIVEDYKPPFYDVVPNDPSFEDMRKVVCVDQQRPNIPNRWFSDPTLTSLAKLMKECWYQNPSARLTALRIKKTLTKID
Experiment: Caliper biochemical peptide phosphorylation assay, ALK2 FOP
Details: Caliper peptide phosphorylation, R206H, 15 uM ATP; read-out: ALK2 FOP EPK IC50
pIC50: −log10 of the molar value.
# label = class 1 if pIC50 >= 7 else class 0

Before answering, review these 5 worked examples.
• CC(C)n1cc(-c2cncc(-c3ccc4c(c3)C(F)(F)C(=O)N4C)c2)ccc1=O [Example 23] = class 0
• CC(C)CN1C(=O)Cc2cc(-c3cncc(-c4ccc(=O)n(C(C)C)c4)c3)ccc21 [Example 24] = class 1
• CC(C)n1cc(-c2cncc(-c3ccc4c(c3)CCC(=O)N4C)c2)ccc1=O [Example 28] = class 1
• CC(C)n1cc(-c2cncc(-c3ccc4c(c3)CCCC(=O)N4C)c2)ccc1=O [Example 39] = class 1
• CC(C)n1cc(-c2cncc(-c3ccc4c(c3)CC(=O)N4CC3CCC3)c2)ccc1=O [Example 38] = class 1

Field: next compound
Quick check: does CCC(CC)n1cc(-c2cncc(-c3ccc4c(c3)CC(=O)N4C)c2)ccc1=O [Example 4] have pIC50 greater than or equal to 7?
class 0

---

Target: wild-type ALK2 (aa172-499) (Homo sapiens (Human), UniProt Q04771)
Sequence (Q04771 172-499): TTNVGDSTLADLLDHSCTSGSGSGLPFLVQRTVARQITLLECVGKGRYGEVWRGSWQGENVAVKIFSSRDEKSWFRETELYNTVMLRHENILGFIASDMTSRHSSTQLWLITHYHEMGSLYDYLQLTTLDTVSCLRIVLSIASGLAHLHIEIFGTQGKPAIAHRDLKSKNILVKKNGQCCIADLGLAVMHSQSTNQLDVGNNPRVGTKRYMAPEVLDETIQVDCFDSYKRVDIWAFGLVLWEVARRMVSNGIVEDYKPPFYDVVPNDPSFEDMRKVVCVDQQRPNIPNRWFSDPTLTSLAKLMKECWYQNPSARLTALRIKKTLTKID
Experiment: ADPGlo biochemical autophosphorylation assay, ALK2
Settings: 15 uM ATP
readout.kind: IC50 (nM)
Answer in nM, number only, no unit symbol.

IC50 lookup needed for CN1C(=O)Cc2cc(-c3cncc(-c4ccc(=O)n(C)c4)c3)ccc21 , thanks.
2200

IC50 lookup needed for CCn1cc(-c2cncc(-c3ccc4c(c3)CC(=O)N4C)c2)ccc1=O , thanks.
490

IC50 lookup needed for COc1cc(-c2cncc(-c3ccc4c(c3)CC(=O)N4C)c2)cn(C(C)C)c1=O , thanks.
87

IC50 lookup needed for CN1C(=O)Cc2cc(-c3cncc(-c4ccc(=O)n(CCC(F)(F)F)c4)c3)ccc21 , thanks.
1100

IC50 lookup needed for CCC(C)n1cc(-c2cncc(-c3ccc4c(c3)CC(=O)N4C)c2)ccc1=O (centres unmarked) , thanks.
230

IC50 lookup needed for CC(C)n1cc(-c2cncc(-c3ccc4c(c3)CC(=O)N4C)n2)ccc1=O , thanks.
150

IC50 lookup needed for CC(C)n1cc(-c2cncc(-c3ccc4c(c3)CC(=O)N4CCO)c2)ccc1=O , thanks.
160

IC50 lookup needed for CC(C)n1cc(-c2cncc(-c3ccc4c(c3)CCCC(=O)N4C)c2)ccc1=O , thanks.
89

IC50 lookup needed for CC(C)n1nc(-c2cncc(-c3ccc4c(c3)CC(=O)N4C)c2)ccc1=O , thanks.
110

IC50 lookup needed for CC(C)n1cc(-c2cncc(-c3ccc4c(c3)CC(=O)N4C)c2F)ccc1=O , thanks.
690

IC50 lookup needed for CC(C)n1cc(-c2nc(-c3ccc4c(c3)CC(=O)N4C)cnc2N)ccc1=O , thanks.
90

IC50 lookup needed for CC(C)n1cc(-c2cncc(-c3ccc4c(c3)CC(=O)N4)c2)ccc1=O , thanks.
300

IC50 lookup needed for CN1C(=O)Cc2cc(-c3cncc(-c4ccc(=O)n(C5CCC5)c4)c3)ccc21 , thanks.
230

IC50 lookup needed for CC(C)n1cc(-c2cncc(-c3ccc4c(c3)CC(=O)N4CC3CCC3)c2)ccc1=O , thanks.
130

IC50 lookup needed for CN1C(=O)Cc2cc(-c3cncc(-c4ccc(=O)n(C5CCCCO5)c4)c3)ccc21 (centres unmarked) , thanks.
1000

IC50 lookup needed for CC(C)n1cc(-c2cncc(-c3cnc4c(c3)CCC(=O)N4C)c2)ccc1=O , thanks.
290

IC50 lookup needed for CC(C)n1cc(-c2cncc(-c3cnc4c(c3)CC(=O)N4)c2)ccc1=O , thanks.
490

---

Reported pIC50 for target or system ALK6 (aa168-495) (Homo sapiens (Human)), by entry.
The value called pIC50 is obtained by taking minus log10 of the concentration in mol/L.

Record lookup: for ALK6 (aa168-495) (Homo sapiens (Human)), what pIC50 belongs to CCN1c2ccc(-c3cncc(-c4ccc(=O)n(C(C)C)c4)c3)cc2CS1(=O)=O ?
5.96

Record lookup: for ALK6 (aa168-495) (Homo sapiens (Human)), what pIC50 belongs to CC(C)n1cc(-c2cc(-c3ccc4c(c3)CC(=O)N4C)cnc2N)ccc1=O ?
5.43

Record lookup: for ALK6 (aa168-495) (Homo sapiens (Human)), what pIC50 belongs to CN1C(=O)Cc2cc(-c3cncc(-c4ccc(=O)n(C)c4)c3)ccc21 ?
5.03

Record lookup: for ALK6 (aa168-495) (Homo sapiens (Human)), what pIC50 belongs to CCC(CC)CN1C(=O)Cc2cc(-c3cncc(-c4ccc(=O)n(C(C)C)c4)c3)ccc21 ?
6.07

Record lookup: for ALK6 (aa168-495) (Homo sapiens (Human)), what pIC50 belongs to CC(C)n1cc(-c2cncc(-c3ccc4c(c3)CS(=O)(=O)N4C)c2)ccc1=O ?
6.00

Record lookup: for ALK6 (aa168-495) (Homo sapiens (Human)), what pIC50 belongs to CC(C)n1cc(-c2cncc(-c3cnc4c(c3)CCC(=O)N4C)c2)ccc1=O ?
5.27

---

Reported log10 of IC50 for target or system ALK1 (aa166-493) (Homo sapiens (Human), UniProt P37023), by entry.
Units before log transform: µM; reported quantity: IC50; transform: log10.

- CC(C)CN1C(=O)Cc2cc(-c3cncc(-c4ccc(=O)n(C(C)C)c4)c3)ccc21: -0.38
- CC(C)n1cc(-c2cncc(-c3ccc4c(c3)CC(=O)N4CCO)c2)ccc1=O: -0.05
- CC(C)n1cc(-c2cncc(-c3cc(F)c4c(c3)CC(=O)N4C)c2)ccc1=O: 0.11
- Cc1cc(-c2cncc(-c3ccc(=O)n(C(C)C)c3)c2)cc2c1N(C)C(=O)C2: -0.20
- CC(C)Cn1cc(-c2cncc(-c3ccc4c(c3)CC(=O)N4C)c2)ccc1=O: 0.66
- CC(C)n1cc(-c2cncc(-c3cnc4c(c3)CC(=O)N4)c2)ccc1=O: 0.81
- CCC(CC)Cn1cc(-c2cncc(-c3ccc4c(c3)CC(=O)N4C)c2)ccc1=O: 0.72

log10 of IC50 lookup needed for CCCN1C(=O)Cc2cc(-c3cncc(-c4ccc(=O)n(C(C)C)c4)c3)ccc21 , thanks.
-0.27
